Listed below: Signal to noise ratio values for each entry.
# testedTarget: Anti-hC5 Antibody
# Sequence (constant, as listed by the source limits assumed): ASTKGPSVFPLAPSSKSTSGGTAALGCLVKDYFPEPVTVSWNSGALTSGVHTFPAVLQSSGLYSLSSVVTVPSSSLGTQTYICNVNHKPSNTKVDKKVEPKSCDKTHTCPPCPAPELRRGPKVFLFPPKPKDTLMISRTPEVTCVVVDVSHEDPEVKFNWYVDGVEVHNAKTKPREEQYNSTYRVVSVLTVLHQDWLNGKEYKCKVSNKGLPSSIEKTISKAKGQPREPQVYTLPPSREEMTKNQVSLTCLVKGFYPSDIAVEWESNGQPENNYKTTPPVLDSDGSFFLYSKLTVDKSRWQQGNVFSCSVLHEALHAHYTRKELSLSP
# experimentNotes: sandwich ELISA: SKA antibody coated, Anti-hC5 Antibody in pooled human serum; OD spiked / OD blank
metricName: Signal to noise ratio

1) SKA0054 (antibody, V domains shown) VH: QSLEESGGGLVQPEGSLTLTCTASGFSFSSSFWICWVRQAPGKGLEWLACIDAGSSDNTYYANWAKGRFTISKTSSTTVTLQMTSLTDADTATYFCARDRDAAGDAGYGYATSFNLWGPGTLVTVSS VL: AIDMTQTPSSVSAAVGGTVTINCQASESIYSNLAWYQQKPGQRPKLLIYLASTLASGVPSRFKGSGSGTEFTLTISDLECADAATYYCQSVYYDSRGDTFFWAFGGGTEVVVKG
2.6
2) SKA0009 (antibody, V domains shown) VH: QSVEESGGRLVTPGTSLTLTCTVSGIDLSSYGMGWVRQAPGMGLEYIGIIYAAGRTYYASWVKGRFIISKTSTTVDLEMTSLTTEDTATYFCARHGSWYAGMDLWGPGTLVTVSS VL: AIEMTQTPSPVSAAVGGTVSINCQASEDIENYFAWYQQKPGQPPKLLIYDASELASGVPSRFSGSGSGTDFTLTISGVQCDDAATYYCQHADYAASSENTFGGGTEVVVKG
3.2
3) SKA0141 (antibody, V domains shown) VH: QSLEESGGDLVKPGASLTLTCTASGFSFSSSYYMCWVRQAPGKGLEWIACIYAGSSGSTYYASWAKGRFTISKTSSTTVTLQMTSLTAADTATYFCARDGDENMLVGGYFNLWGPGTLVTVSS VL: ALVMTQTPSSVSAAVGGTVTINCQASHNIYSNLAWYQQKPGQRPKLLIYGASNLESGVPSRFKGSGSGTEYTLTISDLECDDAATYYCQSAYYSSNAGYNAFGGGTEVVVKG
4.2
4) SKA0117 (antibody, V domains shown) VH: QSLEESGGDLVKPEGSLTLTCTASGFSFSSSHYMCWVRQAPGKGLEWIACIYAGSSDNTYYASWAKGRFTISKTSSTTVTLQMTSLTAADTATYFCARDTYGYVGYASAGGFFNLWGPGTLVTVSS VL: ALVMTQTPASVSAAVGGTVTINCQASHNIYSVLAWYQQKPGQRPRLLIYGASNLESGVPSRFKGSGSGTEYTLTISDLECDDAATYYCQSAYYSSSTGDNAFGGGTEVVVKG
4.1
